# subject-of-test: T1, extracellular domain of human BCMA (human, UniProt Q02223 1-54)
# T1 construct: amine-linked to Octet AR2G tips; also called hsBCMA; BCMA (human)
# T1 sequence: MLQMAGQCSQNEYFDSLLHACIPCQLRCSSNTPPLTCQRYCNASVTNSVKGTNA
# experiment-description: Octet BLI; Fab 200 nM
result-type: pKd
Just so you know, pKd here is -log10 of the concentration in molar units; reply with that number alone.

AB200-R1H26-R2Vk2 (Fab, V domains shown) VH: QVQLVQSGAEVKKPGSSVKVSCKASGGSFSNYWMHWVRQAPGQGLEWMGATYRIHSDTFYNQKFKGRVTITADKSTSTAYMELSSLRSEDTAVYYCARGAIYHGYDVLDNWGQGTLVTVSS VL: DIQMTQSPSSLSASVGDRVTITCRASQSISSYINWYQQKPGKAPKLLIYAASSLQSGVPSRFSGSGSGTDFTLTISSLQPEDFATYYCQQFRKLPWSFGQGTKLEIKR :: 8.63

Q: Need pKd of AB200-R1H26-R2Vk15 (Fab, V domains shown) VH: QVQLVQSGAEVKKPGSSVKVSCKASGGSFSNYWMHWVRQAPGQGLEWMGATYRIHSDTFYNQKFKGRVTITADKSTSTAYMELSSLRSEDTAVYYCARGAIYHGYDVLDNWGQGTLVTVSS VL: DIQMTQSPSSLSASVGDRVTITCRASQSISSYINWYQQKPGKAPKLLIYAASSLQSGVPSRFSGSGSGTDFTLTISSLQPEDFATYYCQQYRRIPWTFGQGTKLEIKR , thanks.
A: 8.49

Q: Item AB200-R1H26-R2Vk10 (Fab, V domains shown) VH: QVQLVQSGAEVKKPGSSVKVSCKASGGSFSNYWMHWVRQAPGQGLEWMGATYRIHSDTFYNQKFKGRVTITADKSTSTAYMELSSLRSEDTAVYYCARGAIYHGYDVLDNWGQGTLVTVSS VL: DIQMTQSPSSLSASVGDRVTITCRASQSISSYLNWYQQKPGKAPKLLIYAASSLQSGVPSRFSGSGSGTDFTLTISSLQPEDFATYYCQQYRRIPWTFGQGTKLEIKR has what recorded pKd?
A: 8.49

Q: Bench note: what pKd did AB200-R1H26-R2Vk21 (Fab, V domains shown) VH: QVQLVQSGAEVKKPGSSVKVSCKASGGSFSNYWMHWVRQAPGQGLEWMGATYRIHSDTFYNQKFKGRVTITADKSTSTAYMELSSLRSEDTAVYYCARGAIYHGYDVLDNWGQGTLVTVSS VL: DIQMTQSPSSLSASVGDRVTITCRASQSISSYLNWYQQKPGKAPKLLIYATSNLQSGVPSRFSGSGSGTDFTLTISSLQPEDFATYYCQQFRRLPWTFGQGTKLEIKR show?
A: 8.89

Q: Value lookup for pKd; key = AB200-R1H26-R2Vk7 (Fab, V domains shown) VH: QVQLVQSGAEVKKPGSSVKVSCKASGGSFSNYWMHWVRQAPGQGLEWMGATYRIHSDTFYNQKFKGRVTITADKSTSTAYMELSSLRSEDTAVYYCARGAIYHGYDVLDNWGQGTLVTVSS VL: DIQMTQSPSSLSASVGDRVTITCRASQSISSYINWYQQKPGKAPKLLIYATSNIQSGVPSRFSGSGSGTDFTLTISSLQPEDFATYYCQQFRKLPWSFGQGTKLEIKR
A: 8.66

Q: Entry under review: AB200-R1H26-R2Vk3 (Fab, V domains shown) VH: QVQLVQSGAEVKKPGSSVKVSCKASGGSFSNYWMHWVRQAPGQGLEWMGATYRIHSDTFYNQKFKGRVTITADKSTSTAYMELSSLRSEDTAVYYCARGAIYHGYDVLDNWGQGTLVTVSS VL: DIQMTQSPSSLSASVGDRVTITCRASQSISSYLNWYQQKPGKAPKLLIYATSNLQSGVPSRFSGSGSGTDFTLTISSLQPEDFATYYCQQFRKLPWSFGQGTKLEIKR . Reported pKd?
A: 8.79

Q: I would be grateful if you could share the reported pKd for AB200-R1H26-R2Vk33 (Fab, V domains shown) VH: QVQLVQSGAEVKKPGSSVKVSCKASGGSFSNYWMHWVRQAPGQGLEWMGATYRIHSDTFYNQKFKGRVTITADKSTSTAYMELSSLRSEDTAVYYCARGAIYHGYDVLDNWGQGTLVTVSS VL: DIQMTQSPSSLSASVGDRVTITCRASQSISSYLNWYQQKPGKAPKLLIYATSNLQIGVPSRFSGSGSGTDFTLTISSLQPEDFATYYCQQFRKIPWTFGQGTKLEIKR .
A: 8.76

Q: Given the entry AB200-R1H26-R2Vk45 (Fab, V domains shown) VH: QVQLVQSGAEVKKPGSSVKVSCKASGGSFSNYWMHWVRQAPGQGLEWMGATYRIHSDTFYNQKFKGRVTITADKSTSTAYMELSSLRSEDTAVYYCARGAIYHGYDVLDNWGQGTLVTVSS VL: DIQMTQSPSSLSASVGDRVTITCRASQSISSYINWYQQKPGKAPKLLIYATSNLQIGVPSRFSGSGSGTDFTLTISSLQPEDFATYYCQQYRRIPWTFGQGTKLEIKR , report its measured pKd.
A: 8.80
